Values from PubChem BioAssay (Tox21)

MEASUREMENT TARGET: Estrogen receptor (Homo sapiens)
PROCEDURE SUMMARY: qHTS assay to identify small molecule agonists of the estrogen receptor alpha (ER-alpha) signaling pathway using the BG1 cell line (AID 743079); further: nearly all actives have a fitted effect of over 20% in size
CONDITION INFO: BG1Luc4E2 cells, ERE-luciferase agonist, 22 h
Inconclusive results are not listed. The source made the active and inactive calls. The call rests on the fitted dose curve; in most records, active means well fitted activation curve with a large enough effect in the repeat runs; inconclusive means weak or mixed curves, or effect the other way; inactive means no such curve, though single readings can be large or run the other way.
Outcome (select one): true = active, false = inactive

Ask | # fetch the recorded call for O=C(CO)[C@@H](O)[C@H](O)[C@@H](O)C(=O)O here
Reply | false

Ask | # fetch the recorded call for O=C(O)CC/C=C\CC[C@@H]1[C@@H](N2CCCCC2)[C@@H](O)C[C@@H]1OCc1ccc(-c2ccccc2)cc1 here
Reply | false

Ask | # fetch the recorded call for O=C1/C(=C\c2cccs2)CCC/C1=C\c1cccs1 here
Reply | true

Ask | # fetch the recorded call for O=c1[nH]cnc2[nH]cc(CN3CCCCC3)c12 here
Reply | false

Ask | # fetch the recorded call for CCN(CC)CCOC(=O)c1cccnc1 here
Reply | false

Ask | # fetch the recorded call for Cc1ccccc1CNc1ncnc2c1ncn2[C@@H]1O[C@H](CO)[C@@H](O)[C@H]1O here
Reply | false

###

Potency values, listed per item
MEASUREMENT TARGET: Nuclear receptor subfamily 1 group I member 2 (Rattus norvegicus)
PROCEDURE SUMMARY: Rat pregnane X receptor (rPXR) activation by small molecules, qHTS assay (AID 1346983); further: potency means the concentration at half of the fitted maximal effect; nearly all actives have a fitted effect of over 20% in size
CONDITION INFO: rPXR luciferase reporter cells, One-Glo luminescence, 24 h
Results filed as inconclusive are left out. The source made the active and inactive calls. The call rests on the fitted dose curve; in most records, active means well fitted activation curve with a large enough effect in the repeat runs; inconclusive means weak or mixed curves; inactive means no such curve, though single readings can be large or run the other way.

Example entries and their recorded answers appear below.
CC(=O)OCC(=O)[C@@]12OC3(CCCC3)O[C@@H]1C[C@H]1[C@@H]3CCC4=CC(=O)C=C[C@]4(C)[C@@]3(F)[C@@H](O)C[C@@]12C; 25.1 µM (active)
CCCC(=O)O[C@]1(C(=O)COC(C)=O)CC[C@H]2[C@@H]3C[C@H](F)C4=CC(=O)C=C[C@]4(C)[C@@]3(F)[C@@H](O)C[C@@]21C; 2.51 µM (active)
CC1CCC(NC(=O)N(CCCl)N=O)CC1 (configuration not stated); 5.01 µM (active)
C[C@@H]1C[C@H]2[C@@H]3CCC4=CC(=O)C=C[C@]4(C)[C@@]3(F)[C@@H](O)C[C@]2(C)[C@@]1(O)C(=O)COC(=O)c1cccc(S(=O)(=O)O)c1; 10 µM (active)
COC(=O)C1=C(C#N)NC(C)=C(C(=O)OC(C)C)C1c1cccc([N+](=O)[O-])c1 (configuration not stated); 7.94 µM (active)

Potency in this record for CCCOc1ccc2nc(NC(=O)OC)sc2c1 : 2.51 µM (active)

Potency in this record for CCC(=O)O[C@]1(C(=O)CCl)[C@@H](C)C[C@H]2[C@@H]3C[C@H](F)C4=CC(=O)C=C[C@]4(C)[C@@]3(F)[C@@H](O)C[C@@]21C : 0.447 µM (active)

###

PROCEDURE SUMMARY: qHTS assay to test for compound auto fluorescence at 590 nm (red) in HEK293 cell free culture (AID 720683)
CONDITION INFO: cell-free medium autofluorescence, Ex540/Em590 red; series mostly up to 46 µM
The source made the active and inactive calls. Calls follow the shape of the dose curve; as a rule, active = well fitted curve in the direction sought with a large enough effect in the repeat runs; inconclusive = weak or mixed curves; inactive = flat fitted curve, though single readings scatter.
OBSERVABLE: outcome

Example entries and their recorded answers appear below.
CN[C@@H]1CCc2[nH]c3ccc(C(N)=O)cc3c2C1; inactive
CCCCC(=O)N(Cc1ccc(-c2ccccc2-c2nn[nH]n2)cc1)[C@@H](C(=O)O)C(C)C; inactive
CO[C@H]1C[C@H](O[C@H]2[C@H](C)O[C@@H](O[C@@H]3/C(C)=C/C[C@@H]4C[C@@H](C[C@]5(C=C[C@H](C)[C@@H](C6CCCCC6)O5)O4)OC(=O)[C@@H]4C=C(C)[C@@H](O)[C@H]5OC/C(=C\C=C\[C@@H]3C)[C@]54O)C[C@@H]2OC)O[C@@H](C)[C@@H]1O; inactive
O=C1N=C2SCCN2C(=O)C1Cc1ccc(Cl)cc1 (configuration not stated); inactive
COC(=O)CCC(=O)CN; inactive
C[C@@H]1C/C=C/C=C/C=C/C=C/[C@H](O[C@@H]2O[C@H](C)[C@@H](O)[C@H](N)[C@@H]2O)C[C@@H]2O[C@](O)(C[C@@H](O)C[C@H]3O[C@@H]3/C=C/C(=O)O1)C[C@H](O)[C@H]2C(=O)O; inactive

Consider the additional compound presented here.
outcome in this record for CCCC1([C@H](O)C/C=C/[C@H]2[C@H](O)CC(=O)[C@@H]2CCCCCCC(=O)OC)CCC1 : inactive

###

PROCEDURE SUMMARY: qHTS assay for identifying genotoxic compounds that show differential cytotoxicity against isogenic chicken DT40 cell lines with known DNA damage response pathways - wild type cell line (AID 743012); further: nearly all actives have a fitted effect of over 60% in size
CONDITION INFO: DT40 wild type chicken cells viability, CellTiter-Glo, 40 h; series mostly up to 68.4 µM
Inconclusive results are not listed. Calls of active or inactive are those of the source. Calls come from the whole dose curve; as a rule, active = well fitted cell-killing curve with a large enough effect in the repeat runs; inconclusive = weak or mixed curves, or effect the other way; inactive = no such curve, though single readings can be large or run the other way.
Outcome (select one): active, inactive

N[C@H](CCC(=O)O)C(=O)O; inactive

Ask | # fetch the recorded call for Cc1c(O)cc2c(c1C)O[C@](C)(CCC[C@H](C)CCC[C@H](C)CCCC(C)C)CC2 here
Reply | inactive

Ask | # fetch the recorded call for CC(=O)Nc1ccc(NC(=S)NC(=O)c2ccc(C(C)(C)C)cc2)cc1 here
Reply | active

Ask | # fetch the recorded call for O=C(NOC[C@H](O)CO)c1ccc(F)c(F)c1Nc1ccc(I)cc1F here
Reply | inactive

Ask | # fetch the recorded call for CC(=O)Nc1c(I)c(C(=O)N[C@H]2C(O)O[C@H](CO)[C@@H](O)[C@@H]2O)c(I)c(N(C)C(C)=O)c1I (stereo partly specified) here
Reply | inactive

Ask | # fetch the recorded call for CCCC1C(=O)N2C(N(C)C)=Nc3ccc(C)cc3N2C1=O (stereo unspecified) here
Reply | inactive

###

MEASUREMENT TARGET: Nuclear receptor subfamily 1 group I member 2 (Homo sapiens)
PROCEDURE SUMMARY: Human pregnane X receptor (PXR) activation by small molecules, qHTS assay (AID 1346985); further: nearly all actives have a fitted effect of over 40% in size
CONDITION INFO: DPX-2 HepG2 CYP3A4-luciferase, 24 h; series mostly up to 38.3 µM
Results filed as inconclusive are left out. Active and inactive are the calls of the source. Calls come from the whole dose curve; as a rule, active = well fitted activation curve with a large enough effect in the repeat runs; inconclusive = weak or mixed curves; inactive = flat fitted curve, though single readings scatter.
Outcome (select one): active, inactive

// known answers, use as guide
CC(C)CN(C[C@@H](O)[C@H](Cc1ccccc1)NC(=O)O[C@@H]1CCOC1)S(=O)(=O)c1ccc(N)cc1; active
CC(O)[C@H]1CC[C@H]2[C@@H]3CC[C@@H]4C[C@@H](O)CC[C@]4(C)[C@H]3CC[C@]12C (some centres undefined); inactive
COC(=O)[C@H]1[C@H]2C[C@@H]3c4[nH]c5ccccc5c4CCN3C[C@H]2C[C@@H](OC(=O)c2cc(OC)c(OC)c(OC)c2)[C@@H]1OC; inactive

Attention now turns to another entry.
Ask | # fetch the recorded call for COc1ccc2cc([C@H](C)CO)ccc2c1 here
Reply | inactive

###

MEASUREMENT TARGET: Nuclear receptor subfamily 1 group I member 2 (Homo sapiens)
PROCEDURE SUMMARY: Human pregnane X receptor (PXR) activation by small molecules, qHTS assay (AID 1346985); further: nearly all actives have a fitted effect of over 40% in size
CONDITION INFO: DPX-2 HepG2 CYP3A4-luciferase, 24 h; series mostly up to 38.3 µM
Text: National Center for Advancing Translational Sciences [NCATS] NIH Chemical Genomics Center [NCGC] U.S. Environmental Protection Agency [EPA] National Institutes of Environmental Health Sciences [NIEHS] National Toxicology Program [NTP] The Pregnane X receptor (PXR), a ligand activated nuclear receptor plays a critical role in the regulation of genes involved in drug metabolism and transporters. Activation of PXR may be involved in the unwanted adverse drug-drug interactions. […]
Records with an inconclusive call do not appear. Calls of active or inactive are those of the source. The call rests on the fitted dose curve; in most records, active means well fitted activation curve with a large enough effect in the repeat runs; inconclusive means weak or mixed curves; inactive means flat fitted curve, though single readings scatter.
Outcome (select one): 1.0 for active, 0.0 for inactive

CN1c2c(nc(N)[nH]c2=O)NCC1CNc1ccc(C(=O)NC(CCC(=O)O)C(=O)O)cc1 (centres undefined); 0.0
CCOC(=O)[C@@H](N)CS; 0.0
COc1ccc(CC2c3cc(OC)c(OC)cc3CC[N+]2(C)CCC(=O)OCCCCCOC(=O)CC[N+]2(C)CCc3cc(OC)c(OC)cc3C2Cc2ccc(OC)c(OC)c2)cc1OC (centres undefined); 0.0
O=C1NCCN1c1ncc([N+](=O)[O-])s1; 0.0
CC(C)N=c1cc2n(-c3ccc(Cl)cc3)c3ccccc3nc-2cc1Nc1ccc(Cl)cc1; 0.0

Attention now turns to another entry.
Ask | # fetch the recorded call for CCOC(=O)C1=C(COCCN)NC(C)=C(C(=O)OC)C1c1ccccc1Cl (centres undefined) here
Reply | 1.0

###

PROCEDURE SUMMARY: qHTS assay for small molecule agonists of the p53 signaling pathway - cell viability (AID 651633); further: nearly all actives have a fitted effect of over 30% in size
CONDITION INFO: p53RE-bla HCT-116 viability, ATP luminescence, 16 h; series mostly up to 83.3 µM
Inconclusive results are not listed. Active and inactive are the calls of the source. The call rests on the fitted dose curve.
Outcome (select one): active, inactive

CC[C@H](C)[C@H]1O[C@]2(CC[C@@H]1C)C[C@@H]1C[C@@H](C/C=C(\C)[C@@H](O[C@H]3C[C@H](OC)[C@@H](O[C@H]4C[C@H](OC)[C@@H](O)[C@H](C)O4)[C@H](C)O3)[C@@H](C)/C=C/C=C3\CO[C@@H]4[C@H](O)C(C)=C[C@@H](C(=O)O1)[C@]34O)O2; active

Ask | # fetch the recorded call for COc1ccc2c(c1)N(C[C@H](C)CN(C)C)c1ccccc1S2 here
Reply | inactive

Ask | # fetch the recorded call for O=P(O)(O)OC[C@H]1O[C@](O)(COP(=O)(O)O)[C@@H](O)[C@@H]1O here
Reply | inactive

Ask | # fetch the recorded call for CC(C)[C@H](N)C(=O)OCC(CO)OCn1cnc2c(=O)[nH]c(N)nc21 (stereo partly drawn) here
Reply | inactive

Ask | # fetch the recorded call for [O]=[Bi][O]C(=O)[O][Bi]=[O] here
Reply | inactive

Ask | # fetch the recorded call for CN(C)CCCN1c2ccccc2C(C)(C)c2ccccc21 here
Reply | inactive
